Source of measurements: patent US20170247475A1

Below: a set of entries, each annotated with reported % inhibition, VEGF HUVEC Erk phosphorylation assay.
Biological target: VEGF
Assay: cell-based or functional assay
Answer with the number, then the unit.

In the examples that follow, each entry is paired with its recorded % inhibition, VEGF HUVEC Erk phosphorylation assay.
# BINDER, OBS_VALUE
records = [
    ("VEGFBII025 (VHH, biparatopic bivalent VHH in one chain; also called VEGFBII10E07-40GS-23B04) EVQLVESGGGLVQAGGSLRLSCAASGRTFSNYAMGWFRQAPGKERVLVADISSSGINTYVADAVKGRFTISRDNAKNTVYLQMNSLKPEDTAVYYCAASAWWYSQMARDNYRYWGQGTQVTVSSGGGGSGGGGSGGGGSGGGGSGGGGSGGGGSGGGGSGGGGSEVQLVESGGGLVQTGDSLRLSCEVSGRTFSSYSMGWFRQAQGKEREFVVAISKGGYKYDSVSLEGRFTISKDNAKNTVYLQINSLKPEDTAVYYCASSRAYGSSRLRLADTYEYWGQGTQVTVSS", "99%"),
    ("VEGFBII022 (VHH, biparatopic bivalent VHH in one chain; also called VEGFBII23B04-9GS-5B05) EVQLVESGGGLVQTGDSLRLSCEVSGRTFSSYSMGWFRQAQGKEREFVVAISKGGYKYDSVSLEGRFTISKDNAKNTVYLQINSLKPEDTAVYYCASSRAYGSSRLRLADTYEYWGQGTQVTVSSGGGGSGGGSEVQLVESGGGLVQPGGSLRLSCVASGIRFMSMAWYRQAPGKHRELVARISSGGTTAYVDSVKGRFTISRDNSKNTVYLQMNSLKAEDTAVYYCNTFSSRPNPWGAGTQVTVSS", "94%"),
    ("VEGFBII023 (VHH, biparatopic bivalent VHH in one chain; also called VEGFBII23B04-40GS-10E07; VEGFBI023) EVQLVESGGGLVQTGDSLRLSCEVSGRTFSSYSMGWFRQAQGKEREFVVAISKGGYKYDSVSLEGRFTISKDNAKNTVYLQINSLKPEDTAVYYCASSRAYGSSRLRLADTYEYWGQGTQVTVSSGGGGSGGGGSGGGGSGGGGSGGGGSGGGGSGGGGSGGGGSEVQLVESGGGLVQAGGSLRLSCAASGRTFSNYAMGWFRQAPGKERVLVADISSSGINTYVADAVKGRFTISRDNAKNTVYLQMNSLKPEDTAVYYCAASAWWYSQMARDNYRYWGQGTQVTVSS", "100%"),
    ("VEGFBII024 (VHH, biparatopic bivalent VHH in one chain; also called VEGFBII23B04-40GS-86H09; VEGFBI024) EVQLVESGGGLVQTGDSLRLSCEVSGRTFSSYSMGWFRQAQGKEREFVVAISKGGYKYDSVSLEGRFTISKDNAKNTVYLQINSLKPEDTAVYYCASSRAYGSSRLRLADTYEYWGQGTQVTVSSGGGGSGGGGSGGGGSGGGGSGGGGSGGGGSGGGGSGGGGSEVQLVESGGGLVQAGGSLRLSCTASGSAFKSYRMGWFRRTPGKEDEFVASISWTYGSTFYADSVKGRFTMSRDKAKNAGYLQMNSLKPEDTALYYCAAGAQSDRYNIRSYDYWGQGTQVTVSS", "94%"),
]

Briefly, % inhibition, VEGF HUVEC Erk phosphorylation assay measured for VEGFBII021 (VHH, biparatopic bivalent VHH in one chain; also called VEGFBII23B04-40GS-5B05) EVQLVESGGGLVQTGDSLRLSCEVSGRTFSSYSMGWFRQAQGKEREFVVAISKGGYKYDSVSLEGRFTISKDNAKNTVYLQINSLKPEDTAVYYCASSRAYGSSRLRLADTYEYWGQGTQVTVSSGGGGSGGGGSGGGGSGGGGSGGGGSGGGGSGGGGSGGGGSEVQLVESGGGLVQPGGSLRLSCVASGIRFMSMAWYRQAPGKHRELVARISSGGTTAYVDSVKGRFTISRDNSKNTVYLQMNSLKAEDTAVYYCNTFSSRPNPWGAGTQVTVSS : 103%

Lab book: % inhibition, VEGF HUVEC Erk phosphorylation assay of VEGFBII010 (VHH, bivalent VHH in one chain; also called VEGFBII23B04-35GS-23B04; homodimeric VEGFBII23B04) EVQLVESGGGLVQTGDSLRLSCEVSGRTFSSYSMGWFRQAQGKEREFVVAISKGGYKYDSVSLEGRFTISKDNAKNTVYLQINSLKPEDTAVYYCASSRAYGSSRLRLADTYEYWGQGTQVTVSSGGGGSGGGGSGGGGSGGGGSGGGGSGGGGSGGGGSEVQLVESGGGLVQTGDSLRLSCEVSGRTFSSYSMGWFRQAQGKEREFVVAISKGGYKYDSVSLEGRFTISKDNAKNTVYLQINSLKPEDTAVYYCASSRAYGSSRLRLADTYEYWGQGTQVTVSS noted as 92%
